Biological target: p38 MAP Kinase a (Homo sapiens, UniProt Q16539)
Construct: purchased Upstate (Dundee UK)
Sequence (Q16539 whole entry): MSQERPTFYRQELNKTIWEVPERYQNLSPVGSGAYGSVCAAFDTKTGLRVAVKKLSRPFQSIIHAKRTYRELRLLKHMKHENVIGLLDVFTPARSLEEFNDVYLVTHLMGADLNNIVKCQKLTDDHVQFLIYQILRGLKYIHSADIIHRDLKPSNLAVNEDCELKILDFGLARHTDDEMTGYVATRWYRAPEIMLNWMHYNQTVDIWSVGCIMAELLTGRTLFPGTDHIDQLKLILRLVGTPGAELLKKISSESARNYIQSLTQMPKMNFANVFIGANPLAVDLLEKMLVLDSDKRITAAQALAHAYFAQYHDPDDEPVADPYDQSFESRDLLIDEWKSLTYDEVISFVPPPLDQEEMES
Experiment: p38 MAP Kinase activity, radiometric filter-binding assay (Upstate)
Assay type: biochemical
Conditions: Acid (carboxylic acid of the ester); read-out: Inhibition of P38α (IC50 nM)
Procedure: The ability of compounds to inhibit p38 MAP a Kinase activity was measured in an assay performed by Upstate (Dundee UK). In a final reaction volume of 25 μL, p38 MAP Kinase a (5-10 mU) is incubated with 25 mM Tris pH 7.5, 0.002 mMEGTA, 0.33 mg/mL myelin basic protein, 10 mM MgAcetate and [g-33P-ATP] (specific activity approx. 500 cpm/pmol, concentration as required). The reaction is initiated by the addition of the MgATP mix. […]
REPORTED_METRIC: IC50 (nM)
Record the value in nM, omitting the unit from your answer.

Please report the recorded IC50 for CC(C)C[C@H](NCCc1cc(F)c(-n2c(N)c(C(=O)c3ccc(F)cc3F)ccc2=O)c(F)c1)C(=O)OC1CCCC1 [Example 33] . 0.5

* * *

Target: p38 MAP Kinase a (Homo sapiens)
Construct: purchased Upstate (Dundee UK)
Assay: p38 MAP Kinase activity, radiometric filter-binding assay (Upstate)
Assay type: biochemical
Details: IC50 range; read-out: Inhibitor activity versus p38 MAPKa
REPORTED_METRIC: IC50

Please report the recorded IC50 for CC[C@H](C)[C@H](NCCc1ccc(-n2c(N)c(C(=O)c3ccc(F)cc3F)ccc2=O)cc1)C(=O)OC1CCCC1 . 0.1 to 1 µM

Entry to check: C[C@@H](OC(C)(C)C)[C@H](NCCc1ccc(-n2c(N)c(C(=O)c3ccc(F)cc3F)ccc2=O)cc1)C(=O)OC(C)(C)C 0.1 to 1 µM

Entry to check: C[C@H](NCCc1ccc(-n2c(N)c(C(=O)c3ccc(F)cc3F)ccc2=O)cc1)C(=O)OC1CCCC1 < 0.1 µM

Entry to check: CC(C)[C@H](NCCc1ccc(-n2c(N)c(C(=O)c3ccc(F)cc3F)ccc2=O)cc1)C(=O)OC(C)(C)C 0.1 to 1 µM

Entry to check: Nc1c(C(=O)c2ccc(F)cc2)ccc(=O)n1-c1c(F)cc(CCN[C@H](C(=O)O)c2ccccc2)cc1F < 0.1 µM

Entry to check: CC(C)C[C@@H](NCCc1ccc(-n2c(N)c(C(=O)c3ccc(F)cc3F)ccc2=O)cc1)C(=O)OC1CCCC1 0.1 to 1 µM

* * *

Molecular target: p38 MAP Kinase a (Homo sapiens)
Construct: purchased Upstate (Dundee UK)
Assay: p38 MAP Kinase activity, radiometric filter-binding assay (Upstate)
Assay type: biochemical
Conditions: IC50 range; read-out: Inhibitor activity versus p38 MAPKa
pIC50: −log10 of the molar value.
// reported pIC50 for each item listed

Please report the recorded pIC50 for CC(C)C[C@H](NCCc1ccc(-n2c(N)c(C(=O)c3ccc(F)cc3F)ccc2=O)cc1)C(=O)O[C@@H]1CC(C)CC[C@H]1C(C)C (stereo in doubt) [Example 13] . < 6.00

Entry to check: CC(C)(C)OC(=O)[C@H](Cc1ccccc1)NCCc1ccc(-n2c(N)c(C(=O)c3ccc(F)cc3F)ccc2=O)cc1 [Example 23] 6.00 to 7.00

* * *

Target: p38 MAP Kinase a (Homo sapiens, UniProt Q16539)
Construct: purchased Upstate (Dundee UK)
Test: p38 MAP Kinase activity, radiometric filter-binding assay (Upstate)
Type: biochemical
Conditions: IC50 range; read-out: Inhibitor activity versus p38 MAPKa
pIC50: −log10 of the molar value.
// reported pIC50 for each item listed

Answered examples (5):
Please report the recorded pIC50 for CC(C)C[C@H](NCCc1ccc(-n2c(N)c(C(=O)c3ccc(F)cc3F)ccc2=O)cc1)C(=O)O[C@H]1C[C@@H](C)CC[C@@H]1C(C)C . < 6.00

Entry to check: CC(C)(C)OC[C@H](NCCc1ccc(-n2c(N)c(C(=O)c3ccc(F)cc3F)ccc2=O)cc1)C(=O)OC1CCCC1 6.00 to 7.00

Entry to check: CC(C)(C)OC[C@H](NCCc1cc(F)c(-n2c(N)c(C(=O)c3ccc(F)cc3F)ccc2=O)c(F)c1)C(=O)O > 7.00

Entry to check: CC[C@H](C)[C@H](NCCc1ccc(-n2c(N)c(C(=O)c3ccc(F)cc3F)ccc2=O)cc1)C(=O)OC(C)(C)C 6.00 to 7.00

Entry to check: C[C@@H](O)[C@H](NCCc1ccc(-n2c(N)c(C(=O)c3ccc(F)cc3F)ccc2=O)cc1)C(=O)O > 7.00

---
Please report the recorded pIC50 for Nc1c(C(=O)c2ccc(F)cc2F)ccc(=O)n1-c1c(F)cc(CCN[C@H](C(=O)OC2CCCC2)c2ccccc2)cc1F . > 7.00

Entry to check: CC(C)(C)OC(=O)[C@@H](NCCc1ccc(-n2c(N)c(C(=O)c3ccc(F)cc3F)ccc2=O)cc1)C1CCCCC1 < 6.00

* * *

Biological target: p38 MAP Kinase a (Homo sapiens, UniProt Q16539)
Construct: purchased Upstate (Dundee UK)
Assay: p38 MAP Kinase activity, radiometric filter-binding assay (Upstate)
Assay type: biochemical
Conditions: IC50 range; read-out: Inhibitor activity versus p38 MAPKa
REPORTED_METRIC: IC50

What value of IC50 on p38 MAP Kinase a (Homo sapiens, UniProt Q16539) does CC(C)C[C@@H](NCCc1cc(F)c(-n2c(N)c(C(=O)c3ccc(F)cc3)ccc2=O)c(F)c1)C(=O)OC(C)(C)C have? 100 to 1000 nM

Entry to check: C[C@@H](OC(C)(C)C)[C@H](NCCc1ccc(-n2c(N)c(C(=O)c3ccc(F)cc3F)ccc2=O)cc1)C(=O)OC1CCCC1 100 to 1000 nM

Entry to check: CC(C)C[C@H](NCCc1ccc(-n2c(N)c(C(=O)c3ccc(F)cc3F)ccc2=O)s1)C(=O)OC1CCCC1 100 to 1000 nM

Entry to check: CC(C)(C)OC[C@H](NCCc1cc(F)c(-n2c(N)c(C(=O)c3ccc(F)cc3F)ccc2=O)c(F)c1)C(=O)OC(C)(C)C < 100 nM

Entry to check: Nc1c(C(=O)c2ccc(F)cc2F)ccc(=O)n1-c1ccc(CCN[C@H](C(=O)OC2CCCC2)C2CCCCC2)cc1 100 to 1000 nM

Entry to check: Nc1c(C(=O)c2ccc(F)cc2F)ccc(=O)n1-c1ccc(CCN[C@@H](Cc2ccccc2)C(=O)O)cc1 < 100 nM

Entry to check: Nc1c(C(=O)c2ccc(F)cc2F)ccc(=O)n1-c1ccc(CCN[C@H](C(=O)O)C2CCCCC2)cc1 100 to 1000 nM

Entry to check: CC(C)(C)OC[C@H](NCCc1cc(F)c(-n2c(N)c(C(=O)c3ccc(F)cc3F)ccc2=O)c(F)c1)C(=O)OC1CCCC1 < 100 nM

Entry to check: CC(C)C[C@@H](NCCc1cc(F)c(-n2c(N)c(C(=O)c3ccc(F)cc3F)ccc2=O)c(F)c1)C(=O)OC(C)(C)C 100 to 1000 nM

Entry to check: C[C@H](NCCc1ccc(-n2c(N)c(C(=O)c3ccc(F)cc3F)ccc2=O)cc1)C(=O)OC(C)(C)C < 100 nM

Entry to check: C[C@@H](O)[C@H](NCCc1cc(F)c(-n2c(N)c(C(=O)c3ccc(F)cc3F)ccc2=O)c(F)c1)C(=O)OC1CCCC1 < 100 nM

Entry to check: CC(C)C[C@@H](NCCc1cc(F)c(-n2c(N)c(C(=O)c3ccc(F)cc3)ccc2=O)c(F)c1)C(=O)OC1CCCC1 100 to 1000 nM

Entry to check: CC(C)(C)OC(=O)[C@@H](NCCc1ccc(-n2c(N)c(C(=O)c3ccc(F)cc3F)ccc2=O)cc1)C(C)(C)C 100 to 1000 nM

Entry to check: C[C@H](NCCc1ccc(-n2c(N)c(C(=O)c3ccc(F)cc3F)ccc2=O)cc1)C(=O)O < 100 nM

Entry to check: Nc1c(C(=O)c2ccc(F)cc2)ccc(=O)n1-c1c(F)cc(CCN[C@H](C(=O)OC2CCCC2)C2CCCCC2)cc1F 100 to 1000 nM

Entry to check: CC(C)(C)OC[C@H](NCCc1cc(F)c(-n2c(N)c(C(=O)c3ccc(F)cc3)ccc2=O)c(F)c1)C(=O)OC1CCCC1 100 to 1000 nM

Entry to check: Nc1c(C(=O)c2ccc(F)cc2F)ccc(=O)n1-c1ccc(CCN[C@H](C(=O)O)c2ccccc2)cc1 100 to 1000 nM

Entry to check: Nc1c(C(=O)c2ccc(F)cc2F)ccc(=O)n1-c1c(F)cc(CCN[C@H](C(=O)O)c2ccccc2)cc1F < 100 nM
